# credit: patent US20250197467A1

Target: T1, IL-18 receptor (IL-18Rαβ) on cells (UniProt Q13478 19-541; O95256 20-599, limits assumed)
T1 sequence (looked up) 1: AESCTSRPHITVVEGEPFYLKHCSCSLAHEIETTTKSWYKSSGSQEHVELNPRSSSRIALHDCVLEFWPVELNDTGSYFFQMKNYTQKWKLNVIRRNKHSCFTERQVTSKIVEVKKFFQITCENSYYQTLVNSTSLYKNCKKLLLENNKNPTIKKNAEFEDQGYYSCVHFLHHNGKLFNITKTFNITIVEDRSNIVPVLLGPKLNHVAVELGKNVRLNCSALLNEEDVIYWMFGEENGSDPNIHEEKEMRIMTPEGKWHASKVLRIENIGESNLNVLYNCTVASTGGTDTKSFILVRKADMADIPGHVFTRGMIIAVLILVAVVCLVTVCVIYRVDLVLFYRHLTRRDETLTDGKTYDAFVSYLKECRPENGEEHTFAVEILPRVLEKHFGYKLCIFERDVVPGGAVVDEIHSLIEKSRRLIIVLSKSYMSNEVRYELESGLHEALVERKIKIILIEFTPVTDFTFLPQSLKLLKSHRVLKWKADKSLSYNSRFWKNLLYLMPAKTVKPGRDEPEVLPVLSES
T1 sequence (looked up) 2: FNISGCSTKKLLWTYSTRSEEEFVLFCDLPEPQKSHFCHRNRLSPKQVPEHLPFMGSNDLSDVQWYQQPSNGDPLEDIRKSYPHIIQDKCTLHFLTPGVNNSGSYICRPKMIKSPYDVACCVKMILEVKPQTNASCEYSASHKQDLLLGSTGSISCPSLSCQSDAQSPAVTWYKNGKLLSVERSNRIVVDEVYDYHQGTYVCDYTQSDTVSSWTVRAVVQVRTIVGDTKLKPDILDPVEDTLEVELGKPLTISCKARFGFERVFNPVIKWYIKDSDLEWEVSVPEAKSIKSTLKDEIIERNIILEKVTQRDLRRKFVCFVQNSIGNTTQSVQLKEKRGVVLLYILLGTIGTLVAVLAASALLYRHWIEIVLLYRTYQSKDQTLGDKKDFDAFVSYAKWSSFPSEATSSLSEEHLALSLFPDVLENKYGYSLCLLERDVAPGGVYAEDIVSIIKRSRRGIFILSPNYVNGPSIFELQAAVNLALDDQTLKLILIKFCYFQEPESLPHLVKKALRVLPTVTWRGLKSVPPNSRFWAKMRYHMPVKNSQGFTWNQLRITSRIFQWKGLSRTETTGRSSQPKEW
Experiment: cell-based or functional assay
Entries and their HEK-Blue IL-18R reporter EC50
readoutKind: HEK-Blue IL-18R reporter EC50 (pM)

1) C182 (ligand) YFGKLKSKLSIIRNLNDQVLFIDQGNRPLFEDMTDSDARDNAPRTIFIISMYADSQPRGMAVAISVKCEKISTLSAENKIISFKEMNPPDNIKDTKSDIIFFQRSVPGHDNKMQFESSSYEGYFLAAEKERDLFKLILKKEDELGDRSIMFTYQNED :: 0.08
2) C160 (ligand) YFGKLESKLSIIRNLNDQVLFIDQGNRPLFEDMTDSDARDNAPRTIFIISMYADSQPRGMAVTISVKCEKISTLSAENKIISFKEMNPPDNIKDTKSDIIFFQRSVPGHANKMQFESSSYEGYFLAAEKERDLFKLILKKEDELGDRSIMFTVQNED :: 2.02
3) C192 (ligand) GYFGKLKSKLSIIRNLNDQVLFIDQGNRPLFEDMTDSDARDNAPRTIFIISGYADSQPRGMAVAISVKCEKISTLSAENKIISFKEMNPPDNIKDTKSDIIFFQRSVPGHDNKMQFESSSYEGYFLAAEKERDLFKLILKKEDELGDRSIMFTVQNED :: 14
4) C153 (ligand) YFGKLESKLSIIRNLNDQVLFIDQGNRPLFEDMTDSAARDNAPRTIFIISMYADSQPRGMAVTISVKCEKISTLSAENKIISFKEMNPPDNIKDTKSDIIFFQRSVPGHDNKMQFESSSYEGYFLAAEKERDLFKLILKKEDELGDRSIMFTVQNED :: 14.1
5) C142 (ligand) MFGKLKSKLSIIRNLNDQVLFIDQGNRPLFEDMTDSDARDNAPRTIFIISMYADSQPRGMAVAISVKCEKISTLSAENKIISFKEMNPPDNIKDTKSDIIFFQRSVPGHDNKMQFESSSYEGYFLAAEKERDLFKLILKKEDELGDRSIMFTVQNED :: 0.02
